Values compiled from the antibiotic and cytotoxicity screens of Wong et al. (2023).

Tested on: HepG2
Experimental details: cytotoxicity call (relative viability < 0.9)
Assay context: 10 µM
Hit rate of the full screen: of about 39,000 compounds, about 3,300 (8.5%) were called active. The entries come from a sample that favours actives as a whole.
I would appreciate it if you answered using one of these outcomes: active, inactive

Here are 3 compounds together with their reported answers.
> print(dat)
                                chem.smiles  assigned.category
1                       Cc1nc(-c2ccccc2)cs1           inactive
2  O=C(C[C@@H]1C[C@H]2c3cc(NS(=O)(=O)c4ccc(F)cc4)ccc3O[C@H]2[C@H](CO)O1)NCc1ccccc1           inactive
3  Cc1noc(C)c1S(=O)(=O)N(C)C[C@H]1Oc2ccc(NS(=O)(=O)c3cn(C)cn3)cc2CC(=O)N([C@@H](C)CO)C[C@H]1C           inactive

[Q] Given "Cc1noc(C)c1NC(=O)N(C)C[C@@H]1Oc2ccc(NC(=O)Nc3ccc(C(F)(F)F)cc3)cc2CC(=O)N([C@H](C)CO)C[C@H]1C" , state the outcome it received in this test.
[A] inactive

[Q] Follow-up entry: "COC(=O)C[C@@H]1CC[C@H]2[C@@H](COC[C@@H](O)CN2S(=O)(=O)c2ccccc2C)O1"
[A] inactive
